Origin of values: PubChem BioAssay (NCI)

tested on: MALME-3M melanoma; experiment: NCI-60 one-dose screen, 48 h (100 = growth as untreated, 0 = no growth, -100 = all killed); settings: 10 µM
Compounds without any hit were thinned out: in the full panel of roughly 83,000, 20% have a hit. The source made the active and inactive calls. Rule for the calls: active = growth percent below 10; inactive = the rest.
PARAMETER: growth

Problem: Request - read-out growth | tested on MALME-3M melanoma | compound O=C1/C(=C\c2ccc(Cl)cc2)CN(C(=O)c2ccccc2)C/C1=C\c1ccc(Cl)cc1
Result: 64.8% (inactive)

Problem: // same read-out, input: COc1ccc(-c2cc(-c3ccc(N(C)C)cc3)c(C#N)c(N3CCCC3)n2)cc1
Result: 122% (inactive)

Problem: Field entry: C=C1c2c(C)nn(-c3ccc(OC)cc3)c2N(C)C23C[C@@H]1C1(C)c4c(C)nn(-c5ccc(OC)cc5)c4N(C)C(C)(C[C@H]12)C3 (some centres undefined)
Result: 53.9% (inactive)

Problem: Next entry: CC(C)=NNc1ncnc2c1ncn2C1OC(CO)C(O)C1O (centres undefined)
Result: -15.8% (active)
